Ref: patent US10188634B2

# Tested on: Wnt activity (Sp5-Luc reporter, human Sp5 promoter with eight TCF/LEF binding sites) in SW480 colon carcinoma cells
# method.summary: Screening assay for Wnt activity: Sp5-Luc reporter gene assay in SW480 cells
# Format: cell-based
# experimental.context: 10 μM, read-out: percent inhibition at 10 μM (given for EC50 of >10 μM)
measured.metric: inhibition at 10 µM (%)
The figure you give is taken to be in %; do not add the unit.

1. CN1CCN(c2cncc3[nH]c(-c4n[nH]c5ccc(-c6cnccn6)nc45)nc23)CC1
5.8
2. COc1cccc(-c2cncc3[nH]c(-c4n[nH]c5ccc(-c6cncc(NC(=O)C7CCCCC7)c6)nc45)nc23)c1
0
3. CN1CCN(c2cncc3[nH]c(-c4n[nH]c5ccc(-c6cncc(NC(=O)C7CCCC7)c6)nc45)nc23)CC1
3.9

Attention now shifts to the item below.
Q. Quick one: inhibition at 10 µM of Cn1cc(-c2ccc3[nH]nc(-c4nc5c(-c6ccc(F)cc6)cncc5[nH]4)c3n2)c(CO)n1 ?
A. 11.8

----------
# System: SW480 colon cancer cells
# method.summary: Cell viability assay (CellTiter-Blue) in SW480 colon cancer cells
# Format: cell-based
# experimental.context: Homo sapiens, 96 h, 10 μM, four days, CellTiter-Blue, read-out: percent inhibition at 10 μM (given for EC50 of >10 μM)
The molecules listed here are annotated with their inhibition at 10 µM.
The figure you give is taken to be in %; do not add the unit.

Recorded inhibition at 10 µM, per entry:
1) c1cc2c(cc1-c1cncc3[nH]c(-c4n[nH]c5ccc(C6CCNCC6)nc45)nc13)OCO2
4.8
2) Fc1cccc(-c2cncc3[nH]c(-c4n[nH]c5ccc(-c6cncc(OC7CCNCC7)c6)nc45)nc23)c1
11.7
3) CS(=O)(=O)NCc1cc(F)cc(-c2cncc3[nH]c(-c4n[nH]c5ccc(-c6cncc(NC(=O)CC7CCNCC7)c6)nc45)nc23)c1
14.6

Q. Quick one: inhibition at 10 µM of Oc1cncc(-c2ccc3[nH]nc(-c4nc5c(N6CCCCC6)cncc5[nH]4)c3n2)c1 ?
A. 2.4

Q. Similarly, CS(=O)(=O)NCc1cc(F)cc(-c2cncc3[nH]c(-c4n[nH]c5ccc(-c6cncc(CNCc7ccccc7)c6)nc45)nc23)c1 ?
A. 0

Q. Similarly, c1cc(-c2cncc3[nH]c(-c4n[nH]c5ccc(-c6cnccn6)nc45)nc23)ccn1 ?
A. 13.7

Q. Similarly, Cn1cc(-c2ccc3[nH]nc(-c4nc5c(-c6cccs6)cncc5[nH]4)c3n2)cn1 ?
A. 1.3

Q. Similarly, Fc1cccc(-c2cncc3[nH]c(-c4n[nH]c5ccc(-c6cnccn6)nc45)nc23)c1 ?
A. 7.5

Q. Similarly, Cc1ncc(-c2ccc3[nH]nc(-c4nc5c(-c6cc(F)cc(NCCN(C)C)c6)cncc5[nH]4)c3n2)n1C ?
A. 46.5

----------
The compounds listed here are annotated with their inhibition at 10 µM.
# System: SW480 colon cancer cells
# method.summary: Cell viability assay (CellTiter-Blue) in SW480 colon cancer cells
# Format: cell-based
# experimental.context: Homo sapiens, 96 h, 10 μM, four days, CellTiter-Blue, read-out: percent inhibition at 10 μM (given for EC50 of >10 μM)
The figure you give is taken to be in %; do not add the unit.

Recorded inhibition at 10 µM, per entry:
1. c1cc(-c2cncc3[nH]c(-c4n[nH]c5ccc(-c6cncc(OC7CCNCC7)c6)nc45)nc23)ccn1
10.3
2. CCCC(=O)Nc1cncc(-c2ccc3[nH]nc(-c4nc5c(-c6ccncc6)cncc5[nH]4)c3n2)c1
2.8
3. Cc1ccncc1-c1ccc2[nH]nc(-c3nc4c(-c5ccncc5)cncc4[nH]3)c2n1
2.8
4. CN(C)CC(=O)Nc1cncc(-c2ccc3[nH]nc(-c4nc5c(-c6cccc(F)c6)cncc5[nH]4)c3n2)c1
16.1
5. c1cncc(-c2cncc3[nH]c(-c4n[nH]c5ccc(-c6cncc(OC7CCCCC7)c6)nc45)nc23)c1
15.5

Q. Quick one: inhibition at 10 µM of CN1CCN(c2cncc3[nH]c(-c4n[nH]c5ccc(-c6cncnc6)nc45)nc23)CC1 ?
A. 0

Q. Similarly, O=C(Nc1cncc(-c2ccc3[nH]nc(-c4nc5c(-c6cccs6)cncc5[nH]4)c3n2)c1)C1CC1 ?
A. 10
